These entries and their values trace back to patent US9896441B2.

system: Gal4-RORγ-LBD (Homo sapiens, UniProt P51449)
Construct: expressed in transfected cells
Sequence (P51449 269-508 limits assumed): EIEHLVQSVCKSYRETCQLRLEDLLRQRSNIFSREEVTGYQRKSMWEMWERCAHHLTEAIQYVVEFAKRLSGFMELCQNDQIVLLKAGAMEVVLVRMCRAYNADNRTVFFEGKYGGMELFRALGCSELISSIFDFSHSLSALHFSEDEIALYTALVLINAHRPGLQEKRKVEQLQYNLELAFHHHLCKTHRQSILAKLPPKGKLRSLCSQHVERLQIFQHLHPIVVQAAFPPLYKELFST
measurementNotes: Gal4-RORγ Luciferase Reporter Assay in HEK-293T Cells
Assay type: cell-based
testSettings: HEK-293 cells, luciferase reporter, with ursolic acid
readoutLabel: EC50

# input Look up EC50: COC(=O)CC[C@H]1CN(S(=O)(=O)c2cccc(C(F)(F)F)c2)c2cc(/C=C(\C)c3ccccc3C)ccc2O1 [Example 86AL]
# output 500 to 5000 nM

# input If you can, please state the reported EC50 value of CCn1cc(S(=O)(=O)N2C[C@H](CCC(=O)O)Oc3ccc(/C=C(\C)c4c(F)cccc4Cl)cc32)c(OCCO)n1 [Example 80] .
# output 500 to 5000 nM

# input Recorded EC50 for CCn1cc(S(=O)(=O)N2C[C@H](CCC(=O)OC)Oc3ccc(/C=C(\C)c4c(F)cccc4Cl)cc32)c(Cl)n1 [Example 86H] , please?
# output 500 to 5000 nM

# input # query: EC50 of entry COC(=O)CC[C@H]1CN(S(=O)(=O)c2cccc(C(F)(F)F)c2)c2cc(/C=C(\C)c3ccccc3OC)ccc2O1 [Example 86AJ]
# output < 500 nM

# input Give its EC50 value. Item: CCOc1nn(CC)cc1S(=O)(=O)N1C[C@H](CCC(=O)O)Oc2ccc(/C=C/c3cccs3)cc21 [Example 89O]
# output > 10000 nM

# input Dear colleague, I am looking for the recorded EC50 of the following compound: CCOc1nn(CC)cc1S(=O)(=O)N1C[C@H](CCC(=O)O)Oc2ccc(/C=C/c3ccc(C#N)cc3)cc21 [Example 89DC]
# output > 10000 nM

# input Which EC50 value is on record for CCOc1nn(CC)cc1S(=O)(=O)N1C[C@H](CCC(=O)O)Oc2ccc(/C=C/c3nccs3)cc21 [Example 89Q] ?
# output > 10000 nM

# input Entry CCOc1nn(CC)cc1S(=O)(=O)N1C[C@H](CCC(=O)O)Oc2ccc(/C=C/c3ccsc3)cc21 [Example 89K] : reported EC50 = ?
# output 500 to 5000 nM

# input What value of measured EC50 is listed for CC(C)n1cc(S(=O)(=O)N2C[C@H](CCC(=O)O)Oc3ccc(/C=C/c4c(Cl)cccc4C(F)(F)F)cc32)c(OCCO)n1 [Example 89ED] ?
# output < 500 nM

# input Would you mind telling me what EC50 value was observed for COC(=O)CC[C@H]1CN(S(=O)(=O)c2cccc(C(F)(F)F)c2C)c2cc(/C=C(\C)c3c(F)cccc3Cl)ccc2O1 [Example 86AN] ?
# output 500 to 5000 nM

# input For C/C(=C\c1c(F)cccc1Cl)c1ccc2c(c1)N(S(=O)(=O)c1cccc(C(F)(F)F)c1)C[C@H](CCC(=O)O)O2 [Example 32] , what is its reported EC50?
# output 5000 to 10000 nM

# input Returns the measured EC50 for the input compound. Input: COc1cc(S(=O)(=O)N2CCCc3ccc(OCc4c(Cl)cccc4Cl)cc32)ccc1F [Example 25P]
# output < 500 nM

# input Consider the compound O=C(O)CC[C@H]1CN(S(=O)(=O)c2cccc(C(F)(F)F)c2)c2cc(/C=C/c3c(Cl)cc(F)cc3Cl)ccc2O1 [Example 89CM] and give its measured EC50.
# output 500 to 5000 nM

# input # query: EC50 of entry Cc1cccc(C)c1/C=C/c1ccc2c(c1)N(S(=O)(=O)c1cccc(OC(F)F)c1)C[C@H](CCC(=O)O)O2 [Example 89AC]
# output 500 to 5000 nM

# input What value of measured EC50 is listed for C/C(=C\c1ccc2c(c1)N(S(=O)(=O)c1cn(C3CC3)nc1OCCO)C[C@H](CCC(=O)O)O2)c1c(F)cccc1Cl [Example 85] ?
# output < 500 nM

# input Field request: EC50 | item: O=C(O)CC[C@H]1CN(S(=O)(=O)c2cc(C(F)(F)F)cnc2OCCO)c2cc(C=C3CCCCC3)ccc2O1 [Example 95C]
# output 500 to 5000 nM

# input Fill in: EC50 of COc1cc(S(=O)(=O)N2CCCc3ccc(OC4CCCc5ccccc54)cc32)ccc1F (stereo not drawn) [Example 25C] is ___
# output < 500 nM

# input Look up EC50 for this compound: CCOc1nn(CC)cc1S(=O)(=O)N1C[C@H](CCC(=O)O)Oc2ccc(/C=C/c3cccc(OC)n3)cc21 [Example 89S]
# output > 10000 nM

# input Give the measured EC50 of O=C(O)CC[C@H]1CN(S(=O)(=O)c2cc(C(F)(F)F)cnc2OCCO)c2cc(CC3CCCCC3)ccc2O1 [Example 95D] .
# output 500 to 5000 nM

# input Name the reported EC50 value associated with the compound O=C(O)CC[C@H]1CN(S(=O)(=O)c2cccc(OC(F)F)c2)c2cc(/C=C/c3ncccc3Cl)ccc2O1 [Example 89DT]
# output 500 to 5000 nM

# input Can you share its EC50? I mean this compound: CCOc1nn(CC)cc1S(=O)(=O)N1C[C@H](CCC(=O)OC)Oc2ccc(/C=C/c3cccnc3)cc21 [Example 89J]
# output > 10000 nM

# input Would you kindly share the measured EC50 for CCOc1nn(CC)cc1S(=O)(=O)N1C[C@H](CCC(=O)O)Oc2ccc(/C=C/c3ccc(Cl)cc3)cc21 [Example 89DB] ?
# output > 10000 nM

# input # query: EC50 of entry O=C(O)CC[C@H]1CN(S(=O)(=O)c2cccc(C(F)(F)F)c2)c2cc(/C=C/c3c(Cl)cccc3C(F)F)ccc2O1 [Example 89EN]
# output < 500 nM

# input Param item = CC1CCC(=Cc2ccc3c(c2)N(S(=O)(=O)c2cc(C(F)(F)F)cnc2OCCO)C[C@H](CCC(=O)O)O3)CC1 (stereo partly drawn) [Example 95P] ; retrieve measured EC50.
# output 500 to 5000 nM

# input Form field: reported EC50 of Cn1nc(/C=C/c2ccc3c(c2)N(S(=O)(=O)c2cccc(C(F)(F)F)c2)C[C@H](CCC(=O)O)O3)c2c(Cl)cccc21 [Example 89BO]
# output 500 to 5000 nM

# input May I ask what EC50 has been recorded for COc1cc(S(=O)(=O)N2CCCc3ccc(OCc4c(Cl)cccc4C(F)(F)F)cc32)ccc1F [Example 25Q] ?
# output < 500 nM

# input Record request: EC50 value, item CCOc1nn(CC)cc1S(=O)(=O)N1C[C@H](CCC(=O)O)Oc2ccc(/C=C/c3c(Cl)cccc3Cl)cc21 [Example 89CR]
# output < 500 nM
